Target: T1, human KLB and human FGFR1c co-expressed on HEK293/hKLB/hFGFR1c/SRE-luc cells (human, UniProt Q86Z14 1-1044; P11362 22-822)
T1 construct: two receptors co-expressed on one cell line; also called KLB/FGFR1c coreceptor; FGF21R
T1 sequence (Q86Z14 whole entry, chain 1 of 2): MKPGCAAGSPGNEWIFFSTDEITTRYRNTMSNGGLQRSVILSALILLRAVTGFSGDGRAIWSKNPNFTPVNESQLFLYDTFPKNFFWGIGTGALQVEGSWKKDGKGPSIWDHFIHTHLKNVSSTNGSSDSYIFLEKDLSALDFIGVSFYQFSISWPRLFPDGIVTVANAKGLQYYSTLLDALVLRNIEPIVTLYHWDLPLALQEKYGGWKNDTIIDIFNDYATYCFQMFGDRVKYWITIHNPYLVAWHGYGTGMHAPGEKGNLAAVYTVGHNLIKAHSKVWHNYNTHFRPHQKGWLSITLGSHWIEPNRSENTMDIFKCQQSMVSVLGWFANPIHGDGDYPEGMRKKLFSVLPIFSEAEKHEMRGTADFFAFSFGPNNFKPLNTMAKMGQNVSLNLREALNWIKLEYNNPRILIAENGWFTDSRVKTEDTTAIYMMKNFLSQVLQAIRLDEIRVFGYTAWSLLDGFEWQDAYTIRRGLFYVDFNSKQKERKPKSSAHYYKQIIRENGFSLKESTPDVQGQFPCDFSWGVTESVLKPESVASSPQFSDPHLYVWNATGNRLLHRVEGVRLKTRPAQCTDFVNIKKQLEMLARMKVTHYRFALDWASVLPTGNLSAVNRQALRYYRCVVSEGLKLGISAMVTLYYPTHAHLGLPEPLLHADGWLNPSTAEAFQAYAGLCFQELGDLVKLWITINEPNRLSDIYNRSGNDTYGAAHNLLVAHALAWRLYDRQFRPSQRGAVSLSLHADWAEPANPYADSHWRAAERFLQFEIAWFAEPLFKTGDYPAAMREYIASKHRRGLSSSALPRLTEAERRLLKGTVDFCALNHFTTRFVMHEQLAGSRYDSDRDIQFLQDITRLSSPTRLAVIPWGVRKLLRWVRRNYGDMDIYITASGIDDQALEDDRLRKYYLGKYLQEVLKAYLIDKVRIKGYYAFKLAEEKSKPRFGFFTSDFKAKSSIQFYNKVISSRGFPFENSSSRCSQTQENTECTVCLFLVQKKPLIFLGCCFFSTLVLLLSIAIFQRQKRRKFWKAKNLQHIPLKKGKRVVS
T1 sequence (P11362 other isoform, or with tags, fused parts or gaps limits assumed, chain 2 of 2): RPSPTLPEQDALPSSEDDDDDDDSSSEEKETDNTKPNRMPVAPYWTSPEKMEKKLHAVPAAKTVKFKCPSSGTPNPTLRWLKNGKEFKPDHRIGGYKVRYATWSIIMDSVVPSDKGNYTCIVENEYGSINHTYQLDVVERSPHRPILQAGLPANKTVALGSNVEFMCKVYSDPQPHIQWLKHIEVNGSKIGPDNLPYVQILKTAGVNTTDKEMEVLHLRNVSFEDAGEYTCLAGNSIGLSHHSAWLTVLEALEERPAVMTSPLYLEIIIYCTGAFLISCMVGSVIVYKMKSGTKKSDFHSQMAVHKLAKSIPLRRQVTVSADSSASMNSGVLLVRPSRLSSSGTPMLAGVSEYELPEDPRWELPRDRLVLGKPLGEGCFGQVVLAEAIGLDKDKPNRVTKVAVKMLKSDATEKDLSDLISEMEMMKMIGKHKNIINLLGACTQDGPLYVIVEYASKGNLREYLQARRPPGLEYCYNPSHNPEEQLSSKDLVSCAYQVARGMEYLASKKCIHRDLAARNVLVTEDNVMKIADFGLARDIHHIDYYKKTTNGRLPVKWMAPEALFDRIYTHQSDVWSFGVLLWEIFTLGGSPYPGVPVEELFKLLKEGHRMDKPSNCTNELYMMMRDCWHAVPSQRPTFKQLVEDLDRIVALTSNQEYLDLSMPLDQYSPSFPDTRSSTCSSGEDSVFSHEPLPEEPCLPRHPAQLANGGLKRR
Experiment: FACS on stable HEK293 cells
Would you mind labelling by binding ratio to unstained cells? At or over 7 fold is true (1), under is false (0).

IN: Entry H4H8852P (antibody, V domains shown, human IgG4 Fc (H4H prefix)) VH: QVQLQESGPGLVKPSETLSLTCTVSGGSISSYYWSWIRQPPGKGLEWIGYIYSSGIIKYNPSLKSRVTISADTSKNQFSLKLSSVTAADTAVYYCARHGIFGVMEYFQRWGQGTLVTVSS VL: DIQMTQSPSSLSASIGDRVTITCQASQDIGNFLNWYQQKPGKAPTLLIYDASNMETGVPSRFSGSGSGTYFTFTISSLQPEDVATYYCQQYDNLPLTFGGGTKVEIK : is its binding ratio to unstained cells no less than 7 fold?
OUT: true (1)

IN: Given H4H8856P (antibody, V domains shown, human IgG4 Fc (H4H prefix)) VH: QVQLQESGPGLVKPSETLSLTCTVSGGSISSYYWSWIRQPPGKGLEWIAYIYYSGITKYNPSLKSRVTISADTSKNQFSLKLSSVTAADTAVYYCARHGIFGVMEYFQRWGQGTLVTVSS VL: DIQMTQSPSSLSASIGDRVTITCQASQDISNFLNWYQQKPGKAPTLLIYDVSNMETGVPSRFSGSGYGTDFTLTISSLKPEDIATYYCQQYDNIPLTFGGGTKVEIK , state whether its binding ratio to unstained cells is at least 7 fold.
OUT: true (1)

IN: In plain terms: is recorded binding ratio to unstained cells at least 7 fold for H1H8900P (antibody, V domains shown, H1H Fc prefix (human Fc)) VH: QVQLVESGGGVVQPGRSLRLSCVASGFTFSSYGMHWVRQAPGKGLEWVAVISFDGSNKYYADSVKGRFTISRDNSKNTLYLQMNSLRPADTAVYYCAKDRSNYYYFGMDVWGQGTTVTVSS VL: DIVMTQTPLSLPVTPGEPASISCRSSQSLLDSDDGNTYLDWYLQKPGQSPQLLIYTLSYRASGVPDRFSGSGSGTDFTLKISRVEAEDVGVYYCMQRIEFPLTFGGGTKVEIK ?
OUT: false (0)

IN: binding ratio to unstained cells >= 7 fold for H1H8898P (antibody, V domains shown, H1H Fc prefix (human Fc)) VH: QVQLVESGGGLVKPGGSLRLSCAASGFIFSDYYMSWIRQAPGKGLDWISYISPSGSTIYYADSVKGRFTISRDNAKNSLYLQMNSLRADDTAVYYCARTGIQLWSVYFDYWGQGTLVTVSS VL: EIVMTQSPATLSVSPGERATLSCRASQSVGSNLAWYQQKPGQAPRLLIYGASTRANGIPARFSGSGSGTEFTLTISGLQSEDFAVYYCQQYNNWPTFGQGTKLEIK ?
OUT: true (1)
